Every entry's value here was drawn from patent US6737383B1.

Test system: crabgrass
protocol_description: Test B pre/postemergence crabgrass
Type: in vivo, Digitaria sanguinalis
run_conditions: Preemergence, Rate 500 g/ha; scale 0 to 10, 0 is no effect, 10 is complete control
Exercise: state measured Crabgrass plant response rating for each of the molecules provided.
One number for each entry.

Kindly give each listed record's Crabgrass plant response rating.
1. CC(C)N(C(=O)n1oc(=O)n(C(C)Cl)c1=O)c1ccccc1 (stereo not shown)
2. CC(C)N(C(=O)n1oc(=O)n(CC(=O)C2CC2)c1=O)c1ccccc1
3. CC(C)N(C(=O)n1oc(=O)n(CO)c1=O)c1ccc(F)cc1
4. CC(=O)NCn1c(=O)on(C(=O)N(c2ccc(F)cc2)C(C)C)c1=O
5. CC(C)N(C(=O)n1oc(=O)n(CC(=O)N(C)C)c1=O)c1ccc(Cl)cc1
6. CC(C)N(C(=O)n1oc(=O)n(CCNC(=O)CCl)c1=O)c1ccccc1
7. CC(C)N(C(=O)n1oc(=O)n(CCBr)c1=O)c1ccccc1

[10, 10, 9, 7, 10, 3, 10]
